Values were extracted from PubChem BioAssay AID1963870.

# System: 292921-168-R-J2-PDC KRAS tumor spheroid viability
# procedure_text: Anticancer human tumor 292921-168-R-J2-PDC patient-derived pancreatic carcinoma cell line growth inhibition [KRAS2]
# particulars: second compound 1 µM; first compound 0.1 µM; stronger effect = lower value; spheroids with HUVEC and MSC
observation_type: viability, T/C (%)
// units = %; emit number, no label

[in] // fetch viability, T/C given entry COC(=O)c1ccc2c(C(=Nc3ccc(N(C)C(=O)CN4CCN(C)CC4)cc3)c3ccccc3)c(O)[nH]c2c1 + C=CC(=O)N1CCN(c2nc(=O)n(-c3c(C)ccnc3C(C)C)c3nc(-c4c(O)cccc4F)c(F)cc23)C(C)C1
[out] 43.7

[in] Using the record for CCNC(=O)CC1N=C(c2ccc(Cl)cc2)c2cc(OC)ccc2-n2c(C)nnc21 (stereo not given) + C=CC(=O)N1CCN(c2nc(OCC3CCCN3C)nc3c2CCN(c2cccc4cccc(C)c24)C3)CC1CC#N , state its measured viability, T/C.
[out] 33

[in] Supply viability, T/C value. Item: CC1COCCN1c1cc(-c2ccnn2C)c2ccnc(-c3ccn[nH]3)c2n1 (stereo not given) + C=CC(=O)N1CCN(c2nc(OCC3CCCN3C)nc3c2CCN(c2cccc4cccc(C)c24)C3)CC1CC#N
[out] 5.9

[in] Look up and report measured viability, T/C for this entry: COC(=O)c1ccc2c(C(=Nc3ccc(N(C)C(=O)CN4CCN(C)CC4)cc3)c3ccccc3)c(O)[nH]c2c1 + CNCc1ccccc1-c1csc(C(C)Nc2nc(C)nc3cc(OC)c(OC)cc23)c1
[out] 88.3

[in] State its viability, T/C for this compound: COC(=O)c1ccc2c(C(=Nc3ccc(N(C)C(=O)CN4CCN(C)CC4)cc3)c3ccccc3)c(O)[nH]c2c1 + CC1OCC2(CCN(c3cnc(Sc4ccnc(N)c4Cl)c(N)n3)CC2)C1N
[out] 44.3

[in] Output measured viability, T/C for this item: CC1(C)CCC(CN2CCN(c3ccc(C(=O)NS(=O)(=O)c4ccc(NCC5CCOCC5)c([N+](=O)[O-])c4)c(Oc4cnc5[nH]ccc5c4)c3)CC2)=C(c2ccc(Cl)cc2)C1 + C=CC(=O)N1CCN(c2nc(=O)n(-c3c(C)ccnc3C(C)C)c3nc(-c4c(O)cccc4F)c(F)cc23)C(C)C1
[out] 106

###

# Tested on: 292921-168-R-J2-PDC KRAS tumor spheroid viability
# procedure_text: Anticancer human tumor 292921-168-R-J2-PDC cell line growth inhibition [KRAS2];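 further: drug exposure lasted seven days after spheroids formed for three days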
# particulars: curve of first compound; second compound 3.16 µM; spheroids with HUVEC and MSC
observation_type: IC50

Solved cases below.
compound | target_of_assay | assay_result
Cn1nccc1Nc1nccc(-c2cc3c(s2)C(C)(C)N(CCN2CCOCC2)C3=O)n1 + CC1OCC2(CCN(c3cnc(Sc4ccnc(N)c4Cl)c(N)n3)CC2)C1N | 292921-168-R-J2-PDC KRAS tumor spheroid viability | < 31.6 nM
COc1cc(Nc2ncc3c(n2)-c2ccc(Cl)cc2C(c2c(F)cccc2OC)=NC3)ccc1C(=O)O + COc1cc2nc(C)nc(NC(C)c3cc(N)cc(C(F)(F)F)c3)c2cc1OC1CCOC1 | 292921-168-R-J2-PDC KRAS tumor spheroid viability | < 31.6 nM
CC(=O)OC12COC1CC(O)C1(C)C(=O)C(O)C3=C(C)C(OC(=O)C(O)C(NC(=O)OC(C)(C)C)c4ccccc4)CC(O)(C(OC(=O)c4ccccc4)C21)C3(C)C (stereo unspecified) + C=CC(=O)N1CCN(c2nc(=O)n(-c3c(C)ccnc3C(C)C)c3nc(-c4c(O)cccc4F)c(F)cc23)C(C)C1 | 292921-168-R-J2-PDC KRAS tumor spheroid viability | < 10 nM
O=C(c1cc(Cc2n[nH]c(=O)c3ccccc23)ccc1F)N1CCN(C(=O)C2CC2)CC1 + COc1cc2nc(C)nc(NC(C)c3cc(N)cc(C(F)(F)F)c3)c2cc1OC1CCOC1 | 292921-168-R-J2-PDC KRAS tumor spheroid viability | 6440 nM
CCN1CCN(Cc2ccc(Nc3ncc(F)c(-c4cc(F)c5nc(C)n(C(C)C)c5c4)n3)nc2)CC1 + CNCc1ccccc1-c1csc(C(C)Nc2nc(C)nc3cc(OC)c(OC)cc23)c1 | 292921-168-R-J2-PDC KRAS tumor spheroid viability | < 3.16 nM

[in] Specify reported IC50 for the compound shown: CC1COCCN1c1cc(-c2ccnn2C)c2ccnc(-c3ccn[nH]3)c2n1 (stereo unspecified) + COc1cc2nc(C)nc(NC(C)c3cc(N)cc(C(F)(F)F)c3)c2cc1OC1CCOC1
[out] < 10 nM

[in] Specify measured IC50 for O=C(c1cc(Cc2n[nH]c(=O)c3ccccc23)ccc1F)N1CCN(C(=O)C2CC2)CC1 + CNCc1ccccc1-c1csc(C(C)Nc2nc(C)nc3cc(OC)c(OC)cc23)c1 .
[out] < 31.6 nM

[in] Give the value of IC50 reported for the following: Cn1ncnc1[C@H]1c2n[nH]c(=O)c3cc(F)cc(c23)N[C@@H]1c1ccc(F)cc1 + CNCc1ccccc1-c1csc(C(C)Nc2nc(C)nc3cc(OC)c(OC)cc23)c1
[out] < 0.316 nM

[in] Entry Cn1ncnc1[C@H]1c2n[nH]c(=O)c3cc(F)cc(c23)N[C@@H]1c1ccc(F)cc1 + CC1OCC2(CCN(c3cnc(Sc4ccnc(N)c4Cl)c(N)n3)CC2)C1N needs its IC50 filled in; supply it.
[out] < 0.316 nM

[in] Determine its reported IC50: COC(=O)c1ccc2c(C(=Nc3ccc(N(C)C(=O)CN4CCN(C)CC4)cc3)c3ccccc3)c(O)[nH]c2c1 + CNCc1ccccc1-c1csc(C(C)Nc2nc(C)nc3cc(OC)c(OC)cc23)c1
[out] < 31.6 nM

[in] Report IC50 for CC1(C)CCC(CN2CCN(c3ccc(C(=O)NS(=O)(=O)c4ccc(NCC5CCOCC5)c([N+](=O)[O-])c4)c(Oc4cnc5[nH]ccc5c4)c3)CC2)=C(c2ccc(Cl)cc2)C1 + CC1OCC2(CCN(c3cnc(Sc4ccnc(N)c4Cl)c(N)n3)CC2)C1N
[out] < 31.6 nM
